This collection of values is drawn from ChEMBL document CHEMBL3124772.

Experimental system: Beta-3 adrenergic receptor (Macaca mulatta)
Sequence (Q28524 whole entry): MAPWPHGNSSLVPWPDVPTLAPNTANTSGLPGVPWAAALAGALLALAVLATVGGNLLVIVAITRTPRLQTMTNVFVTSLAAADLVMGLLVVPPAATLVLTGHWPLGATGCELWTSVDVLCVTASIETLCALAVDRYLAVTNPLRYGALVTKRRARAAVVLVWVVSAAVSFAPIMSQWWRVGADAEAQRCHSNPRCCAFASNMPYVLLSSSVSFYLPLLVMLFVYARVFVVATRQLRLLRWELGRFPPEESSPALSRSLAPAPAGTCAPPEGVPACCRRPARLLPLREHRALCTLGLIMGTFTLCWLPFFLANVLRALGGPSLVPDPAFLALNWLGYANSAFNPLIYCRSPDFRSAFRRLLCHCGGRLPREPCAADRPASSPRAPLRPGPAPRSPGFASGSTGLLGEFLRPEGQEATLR
Assay method text: Agonist activity at rhesus monkey beta-3 adrenergic receptor expressed in CHO cells assessed as increase in intracellular cAMP accumulation after 30 mins by time-resolved fluorescence assay
Measured EC50, listed per entry for reference.
Numbers only; they are read as nM.

O=C(Nc1ccc(C[C@@H]2CC[C@H]([C@H](O)c3cccnc3)N2)cc1)[C@@H]1CCc2ccnn21: 4.7
Nc1nc2c(s1)CC[C@H]2C(=O)Nc1ccc(C[C@@H]2CC[C@H]([C@H](O)c3ccccc3)N2)cc1: 0.06

Then there is this compound:
State the recorded EC50 for this entry: `O=C(Nc1ccc(C[C@@H]2CC[C@H]([C@H](O)c3cccnc3)N2)cc1)[C@@H]1CCc2scnc21` 2
